assay: Inhibition of Penicillium decumbens alpha-L-rhamnosidase using p-nitrophenyl glycoside as substrate assessed as release of p-nitrophenol by spectrometric analysis
property-label: pIC50
In simple prose, pIC50 is minus the logarithm base ten of a concentration in moles per litre.

Sample records with pIC50:
In [3]: df
Out[3]:
                         compound_structure  property_label  measured_value
0    O[C@@H]1[C@@H]2[C@@H](O)CCCN2C[C@@H]1O           pIC50            6.89
1  C[C@@H]1[C@H](O)[C@H]2[C@@H](O)[C@@H](O)CN2C[C@@]1(C)O           pIC50            4.67
2  O[C@@H]1[C@@H]2[C@@H](O)[C@H](O)[C@H](O)CN2C[C@@H]1O           pIC50            3.28

Now let's try a different one.
### Prompt Requested field: pIC50. Item: C[C@@H]1C[C@H](O)[C@H]2[C@@H](O)[C@@H](O)CN2C1
### Response 7.47
